SYSTEM NAME: D2 receptor (Homo sapiens)
Sequence (P14416 whole entry): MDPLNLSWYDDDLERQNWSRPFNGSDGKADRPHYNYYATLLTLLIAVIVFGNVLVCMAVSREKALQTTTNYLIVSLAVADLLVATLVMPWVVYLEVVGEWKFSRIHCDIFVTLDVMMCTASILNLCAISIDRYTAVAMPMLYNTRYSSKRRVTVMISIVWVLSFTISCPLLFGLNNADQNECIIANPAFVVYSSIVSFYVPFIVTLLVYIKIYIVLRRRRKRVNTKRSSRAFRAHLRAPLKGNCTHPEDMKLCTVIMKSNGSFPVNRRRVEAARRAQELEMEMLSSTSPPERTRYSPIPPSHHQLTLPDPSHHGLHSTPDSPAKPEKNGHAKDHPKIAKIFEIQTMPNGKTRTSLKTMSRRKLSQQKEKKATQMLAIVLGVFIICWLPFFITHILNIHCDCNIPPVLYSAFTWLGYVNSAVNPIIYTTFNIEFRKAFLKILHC
TEST SUMMARY: PET central D2 occupancy studies SWE-1 and SIV-101
pKd: −log10 of the molar value.
PROPERTY NAME: pKd

>  <COMPOUND>
Cc1nc2n(c(=O)c1CCN1CCC(c3noc4cc(F)ccc34)CC1)CCCC2O (stereo not shown) [paliperidone, 9-hydroxy-risperidone]

>  <SYSTEM NAME>
D2 receptor (Homo sapiens)

>  <MEASURED VALUE>
7.82 to 7.99

$$$$
